- SYSTEM_NAME: Vascular endothelial growth factor receptor 2 (Homo sapiens)
- Sequence (P35968 whole entry, the tested form may be a part): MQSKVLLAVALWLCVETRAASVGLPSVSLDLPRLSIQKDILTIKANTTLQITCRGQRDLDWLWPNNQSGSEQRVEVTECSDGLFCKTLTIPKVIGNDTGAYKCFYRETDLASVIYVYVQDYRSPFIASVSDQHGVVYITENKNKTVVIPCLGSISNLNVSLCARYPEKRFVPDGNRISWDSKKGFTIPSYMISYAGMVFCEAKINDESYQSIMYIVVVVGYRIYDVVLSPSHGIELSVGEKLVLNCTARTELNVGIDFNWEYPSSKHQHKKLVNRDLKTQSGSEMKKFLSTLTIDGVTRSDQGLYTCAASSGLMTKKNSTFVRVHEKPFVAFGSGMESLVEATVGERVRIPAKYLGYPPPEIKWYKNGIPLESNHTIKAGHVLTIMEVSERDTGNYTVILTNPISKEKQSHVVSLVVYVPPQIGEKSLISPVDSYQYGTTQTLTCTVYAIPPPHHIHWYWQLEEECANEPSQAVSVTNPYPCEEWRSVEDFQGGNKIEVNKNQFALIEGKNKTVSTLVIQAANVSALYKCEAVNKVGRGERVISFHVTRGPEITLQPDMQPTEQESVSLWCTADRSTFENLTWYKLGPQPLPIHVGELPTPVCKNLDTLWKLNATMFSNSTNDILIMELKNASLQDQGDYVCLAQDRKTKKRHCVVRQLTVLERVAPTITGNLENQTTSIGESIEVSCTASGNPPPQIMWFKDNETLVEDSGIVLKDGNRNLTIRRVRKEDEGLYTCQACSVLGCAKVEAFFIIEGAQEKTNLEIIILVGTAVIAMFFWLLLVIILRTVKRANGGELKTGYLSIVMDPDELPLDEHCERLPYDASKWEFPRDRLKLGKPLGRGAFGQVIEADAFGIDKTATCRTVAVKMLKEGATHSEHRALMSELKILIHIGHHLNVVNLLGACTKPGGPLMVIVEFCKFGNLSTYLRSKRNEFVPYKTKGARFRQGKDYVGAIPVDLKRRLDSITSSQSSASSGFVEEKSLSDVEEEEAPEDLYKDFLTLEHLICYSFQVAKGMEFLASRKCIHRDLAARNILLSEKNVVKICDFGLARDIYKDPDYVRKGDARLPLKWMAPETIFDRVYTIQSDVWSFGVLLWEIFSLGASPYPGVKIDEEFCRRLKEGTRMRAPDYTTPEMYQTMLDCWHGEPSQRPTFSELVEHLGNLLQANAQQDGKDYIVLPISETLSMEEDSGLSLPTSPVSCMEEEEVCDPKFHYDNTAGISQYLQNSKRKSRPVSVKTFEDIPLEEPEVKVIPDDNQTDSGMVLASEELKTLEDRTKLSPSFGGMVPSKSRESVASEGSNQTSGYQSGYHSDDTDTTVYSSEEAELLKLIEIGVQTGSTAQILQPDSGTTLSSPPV
- EXPERIMENTAL_PROTOCOL: Inhibition of N-terminal GST-His6-thrombin cleavage site-fused human VEGFR2 (Asp805 to Val1356 residues) expressed in baculovirus expression system using biotinylated gastrin precursor at Tyr87 as substrate preincubated for 5 mins followed by substrate addition measured after 30 mins by DELFIA method
pIC50: −log10 of the molar value.
Reported pIC50 by item:

Solved entries (count: 10):
SUBSTANCE_SMILES	pIC50
C[C@@H](Nc1ncnc2[nH]c(-c3ccc(OCCCCCCC(=O)NO)cc3)cc12)c1ccccc1	≥ 7.00
C[C@@H](Nc1ncnc2[nH]c(-c3ccc(NC(=O)CCCCC(=O)NO)cc3)cc12)c1ccccc1	6.00 to 7.00
C[C@@H](Nc1ncnc2[nH]c(-c3ccc(NCc4ccc(/C=C/C(=O)NO)cc4)cc3)cc12)c1ccccc1	5.00 to 6.00
C[C@@H](Nc1ncnc2[nH]c(-c3ccc(NC(=O)CCC(=O)NO)cc3)cc12)c1ccccc1	6.00 to 7.00
O=C(CCCCCN1CCN(Cc2ccc(-c3cc4c(NCc5ccccc5)ncnc4[nH]3)cc2)CC1)NO	6.00 to 7.00
C[C@@H](Nc1ncnc2c1cc(-c1ccc(C(=O)NCCNCCCCCCC(=O)NO)cc1)n2C)c1ccccc1	5.00 to 6.00
O=C(CCCC(=O)NCc1cc(Oc2ccc(NC(=O)Nc3ccc(Cl)c(C(F)(F)F)c3)cc2)ccn1)NO	≥ 7.00
Cc1[nH]c(/C=C2\C(=O)Nc3ccc(F)cc32)c(C)c1C(=O)NCCCCCC(=O)N(C)O	≥ 7.00
O=C(CCCCCCOc1ccc(-c2cc3c(NCc4ccccc4)ncnc3[nH]2)cc1)NO	5.00 to 6.00
C[C@@H](Nc1ncnc2[nH]c(-c3ccc(OCCCCCCC(=O)NO)cc3)cc12)c1ccc(F)cc1	5.00 to 6.00

Lookup: Sample `C[C@@H](Nc1ncnc2[nH]c(-c3ccc(OCC(=O)NO)cc3)cc12)c1ccccc1` — what was its pIC50?
Found: 5.00 to 6.00

Lookup: Sample `Cc1[nH]c(/C=C2\C(=O)Nc3ccc(F)cc32)c(C)c1C(=O)NCCCCCCC(=O)NO` — what was its pIC50?
Found: ≥ 7.00

Lookup: Sample `O=C(CCCCOc1cc(Oc2ccc(NC(=O)Nc3ccc(Cl)c(C(F)(F)F)c3)cc2)ccn1)NO` — what was its pIC50?
Found: ≥ 7.00

Lookup: Sample `C[C@@H](Nc1ncnc2[nH]c(-c3ccc(CNCc4ccc(C(=O)NO)cc4)cc3)cc12)c1ccccc1` — what was its pIC50?
Found: 6.00 to 7.00

---

- SYSTEM_NAME: Tyrosine-protein kinase ABL1 (Homo sapiens)
- Sequence (P00519 whole entry): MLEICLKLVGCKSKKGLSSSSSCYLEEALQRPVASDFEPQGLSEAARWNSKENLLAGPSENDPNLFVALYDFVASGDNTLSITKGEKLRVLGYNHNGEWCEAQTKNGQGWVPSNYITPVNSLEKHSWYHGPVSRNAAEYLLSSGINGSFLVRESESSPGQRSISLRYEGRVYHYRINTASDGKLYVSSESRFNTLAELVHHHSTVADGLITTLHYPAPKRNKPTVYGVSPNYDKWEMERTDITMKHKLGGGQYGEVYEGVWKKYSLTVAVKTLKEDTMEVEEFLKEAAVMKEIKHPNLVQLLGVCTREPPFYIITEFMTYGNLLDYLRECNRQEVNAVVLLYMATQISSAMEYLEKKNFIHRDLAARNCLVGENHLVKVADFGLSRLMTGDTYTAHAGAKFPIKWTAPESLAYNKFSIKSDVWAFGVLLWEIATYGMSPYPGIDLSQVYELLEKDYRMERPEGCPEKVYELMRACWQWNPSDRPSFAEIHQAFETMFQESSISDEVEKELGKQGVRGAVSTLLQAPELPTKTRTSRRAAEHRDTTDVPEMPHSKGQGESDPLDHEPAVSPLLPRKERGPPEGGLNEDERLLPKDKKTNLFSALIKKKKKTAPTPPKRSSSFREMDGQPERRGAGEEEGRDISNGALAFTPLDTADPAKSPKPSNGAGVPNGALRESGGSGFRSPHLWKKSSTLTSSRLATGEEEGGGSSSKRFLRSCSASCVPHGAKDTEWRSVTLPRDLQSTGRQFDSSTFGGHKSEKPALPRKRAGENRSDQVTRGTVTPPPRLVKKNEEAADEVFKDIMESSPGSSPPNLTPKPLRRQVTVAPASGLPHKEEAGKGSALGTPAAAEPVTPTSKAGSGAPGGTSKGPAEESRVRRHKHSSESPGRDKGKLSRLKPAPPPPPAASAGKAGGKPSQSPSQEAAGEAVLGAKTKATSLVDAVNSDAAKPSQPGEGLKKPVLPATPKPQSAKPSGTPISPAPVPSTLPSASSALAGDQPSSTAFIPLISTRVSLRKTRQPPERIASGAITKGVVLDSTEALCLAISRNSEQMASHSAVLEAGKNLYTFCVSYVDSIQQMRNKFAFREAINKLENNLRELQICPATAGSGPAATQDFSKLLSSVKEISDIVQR
- EXPERIMENTAL_PROTOCOL: Inhibition of human N-terminal GST-tagged human Abl1 (Pro118 to Ser553 residues) expressed in baculovirus expression system assessed as decrease in biotin signal transduction protein phosphorylation at Tyr160 preincubated for 5 mins followed by substrate addition measured after 30 mins by DELFIA method
pIC50: −log10 of the molar value.
Reported pIC50 by item:

Lookup: Sample `Cc1nc(Nc2ncc(C(=O)Nc3c(C)cccc3Cl)s2)cc(N2CCN(CCCCC(=O)NO)CC2)n1` — what was its pIC50?
Found: ≥ 7.00

Lookup: Sample `Cc1nc(N)cc(N(CC(=O)NO)c2ncc(C(=O)Nc3c(C)cccc3Cl)s2)n1` — what was its pIC50?
Found: 6.00 to 7.00

Lookup: Sample `Cc1nc(Nc2ncc(C(=O)Nc3c(C)cccc3Cl)s2)cc(N2CCN(CC(=O)NO)CC2)n1` — what was its pIC50?
Found: ≥ 7.00

Lookup: Sample `Cc1nc(NCCCCCCC(=O)NO)cc(Nc2ncc(C(=O)Nc3c(C)cccc3Cl)s2)n1` — what was its pIC50?
Found: ≥ 7.00

Lookup: Sample `Cc1nc(NCCNCC(=O)NO)cc(Nc2ncc(C(=O)Nc3c(C)cccc3Cl)s2)n1` — what was its pIC50?
Found: ≥ 7.00

---

Reported pIC50 by item:
- SYSTEM_NAME: Mast/stem cell growth factor receptor Kit (Homo sapiens, UniProt P10721)
- Sequence (P10721 whole entry): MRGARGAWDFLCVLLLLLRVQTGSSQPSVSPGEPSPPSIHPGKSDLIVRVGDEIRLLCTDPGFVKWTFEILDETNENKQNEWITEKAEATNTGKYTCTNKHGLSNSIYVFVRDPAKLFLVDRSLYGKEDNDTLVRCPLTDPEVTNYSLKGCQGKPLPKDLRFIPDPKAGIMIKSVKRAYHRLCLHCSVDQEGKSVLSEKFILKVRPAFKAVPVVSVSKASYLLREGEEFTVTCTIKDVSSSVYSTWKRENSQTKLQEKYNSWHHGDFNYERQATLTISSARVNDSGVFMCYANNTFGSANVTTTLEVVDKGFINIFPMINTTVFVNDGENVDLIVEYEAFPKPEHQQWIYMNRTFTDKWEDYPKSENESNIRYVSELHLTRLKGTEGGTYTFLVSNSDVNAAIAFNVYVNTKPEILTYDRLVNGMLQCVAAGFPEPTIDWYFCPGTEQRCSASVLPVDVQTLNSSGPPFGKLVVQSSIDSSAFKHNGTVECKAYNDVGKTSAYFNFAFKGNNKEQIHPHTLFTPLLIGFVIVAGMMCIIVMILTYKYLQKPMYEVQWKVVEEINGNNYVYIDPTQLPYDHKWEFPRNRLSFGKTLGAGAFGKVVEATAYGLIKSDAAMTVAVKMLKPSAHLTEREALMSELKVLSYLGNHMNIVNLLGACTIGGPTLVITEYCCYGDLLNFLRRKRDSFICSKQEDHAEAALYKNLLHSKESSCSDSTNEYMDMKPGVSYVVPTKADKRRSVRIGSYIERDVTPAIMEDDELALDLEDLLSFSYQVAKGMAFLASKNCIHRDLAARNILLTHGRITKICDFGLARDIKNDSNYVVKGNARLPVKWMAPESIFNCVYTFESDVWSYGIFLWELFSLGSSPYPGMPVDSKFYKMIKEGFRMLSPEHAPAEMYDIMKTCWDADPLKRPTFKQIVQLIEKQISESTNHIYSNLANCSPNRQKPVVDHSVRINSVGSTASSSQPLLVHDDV
- EXPERIMENTAL_PROTOCOL: Inhibition of human N-terminal GST-tagged human c-Kit (Thr544 to Val976 residues) expressed in baculovirus expression system assessed as decrease in biotinylated KDR phosphorylation at Tyr996 preincubated for 5 mins followed by substrate addition measured after 30 mins by DELFIA method
pIC50: −log10 of the molar value.

SUBSTANCE_SMILES	SYSTEM_NAME	MEASURED_VALUE
O=C(CCCCCCC(=O)NCc1cc(Oc2ccc(NC(=O)Nc3ccc(Cl)c(C(F)(F)F)c3)cc2)ccn1)NO	Mast/stem cell growth factor receptor Kit (Homo sapiens, UniProt P10721)	≥ 7.00

Lookup: Sample `Cc1nc(NCCCCCCC(=O)NO)cc(Nc2ncc(C(=O)Nc3c(C)cccc3Cl)s2)n1` — what was its pIC50?
Found: ≥ 7.00

Lookup: Sample `O=C(CCCCCNC(=O)c1cc(Oc2ccc(NC(=O)Nc3ccc(Cl)c(C(F)(F)F)c3)cc2)ccn1)NO` — what was its pIC50?
Found: ≥ 7.00

Lookup: Sample `O=C(CCCCC(=O)NCc1cc(Oc2ccc(NC(=O)Nc3ccc(Cl)c(C(F)(F)F)c3)cc2)ccn1)NO` — what was its pIC50?
Found: ≥ 7.00

---

- EXPERIMENTAL_PROTOCOL: Solubility of the compound at pH 2 to 3
- Format: physicochemical
- MEASUREMENT_SETUP: buffer
ASSAY_ENDPOINT: solubility
Hey, just the number and the unit after it is fine.

Lookup: Sample `C#Cc1cccc(Nc2ncnc3cc(OC)c(OCCCCCCC(=O)NO)cc23)c1.Cl` — what was its solubility?
Found: 25 mg/mL

---

- SYSTEM_NAME: Receptor tyrosine-protein kinase erbB-2 (Homo sapiens)
- Sequence (P04626 whole entry): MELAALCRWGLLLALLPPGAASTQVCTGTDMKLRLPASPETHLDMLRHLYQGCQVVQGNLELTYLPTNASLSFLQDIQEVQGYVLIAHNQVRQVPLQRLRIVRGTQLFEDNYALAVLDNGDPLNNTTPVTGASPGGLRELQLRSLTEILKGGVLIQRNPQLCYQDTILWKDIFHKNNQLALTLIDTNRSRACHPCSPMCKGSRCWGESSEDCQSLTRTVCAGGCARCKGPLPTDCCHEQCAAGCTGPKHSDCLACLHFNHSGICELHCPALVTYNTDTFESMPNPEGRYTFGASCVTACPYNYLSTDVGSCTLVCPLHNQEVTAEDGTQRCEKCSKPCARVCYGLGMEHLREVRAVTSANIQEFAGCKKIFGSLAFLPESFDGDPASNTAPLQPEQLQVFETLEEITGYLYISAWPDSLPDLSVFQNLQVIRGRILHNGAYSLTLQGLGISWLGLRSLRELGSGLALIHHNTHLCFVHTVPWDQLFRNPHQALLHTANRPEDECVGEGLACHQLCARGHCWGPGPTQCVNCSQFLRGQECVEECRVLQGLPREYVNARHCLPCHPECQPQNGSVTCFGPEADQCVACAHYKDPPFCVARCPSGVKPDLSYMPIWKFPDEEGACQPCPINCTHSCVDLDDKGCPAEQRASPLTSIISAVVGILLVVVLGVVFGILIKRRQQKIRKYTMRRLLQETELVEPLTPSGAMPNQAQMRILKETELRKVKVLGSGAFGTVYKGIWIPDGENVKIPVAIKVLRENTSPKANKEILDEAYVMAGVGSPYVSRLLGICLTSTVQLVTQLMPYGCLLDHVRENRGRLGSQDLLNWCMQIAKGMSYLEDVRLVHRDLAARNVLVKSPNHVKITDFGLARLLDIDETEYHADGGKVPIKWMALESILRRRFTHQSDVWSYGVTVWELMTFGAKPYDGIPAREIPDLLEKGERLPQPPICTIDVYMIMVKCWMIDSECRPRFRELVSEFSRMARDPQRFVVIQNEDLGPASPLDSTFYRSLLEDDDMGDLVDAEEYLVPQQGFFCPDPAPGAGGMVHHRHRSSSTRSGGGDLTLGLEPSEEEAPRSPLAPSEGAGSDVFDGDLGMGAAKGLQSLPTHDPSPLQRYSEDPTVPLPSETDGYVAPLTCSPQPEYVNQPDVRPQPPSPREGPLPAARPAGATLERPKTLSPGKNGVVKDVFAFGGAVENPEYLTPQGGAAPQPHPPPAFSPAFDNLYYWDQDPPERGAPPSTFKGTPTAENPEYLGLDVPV
- EXPERIMENTAL_PROTOCOL: Inhibition of N-terminal GST-tagged human HER2 (Lys676 to Val1255 residues) expressed in baculovirus expression system using biotinylated FLT3 at Tyr589 as substrate preincubated for 5 mins followed by substrate addition measured after 30 mins by DELFIA method
pIC50: −log10 of the molar value.
ASSAY_ENDPOINT: pIC50

SUBSTANCE_SMILES	ASSAY_ENDPOINT	MEASURED_VALUE
COc1cc2ncnc(Nc3ccc(F)c(Cl)c3)c2cc1SCCCCC(=O)NO	pIC50	≥ 7.00
C[C@@H](Nc1ncnc2[nH]c(-c3ccc(OCCNCCCCCCC(=O)NO)cc3)cc12)c1ccccc1	pIC50	≥ 7.00
COc1cc2ncnc(Nc3ccc(F)c(Cl)c3)c2cc1OCCCCCCC(=O)NO	pIC50	≥ 7.00

Lookup: Sample `COCCOc1cc2c(Nc3ccc(F)c(Cl)c3)ncnc2cc1OCCCCCCC(=O)NO` — what was its pIC50?
Found: 6.00 to 7.00

Lookup: Sample `COc1cc2ncnc(Nc3ccc(F)c(Cl)c3)c2cc1SCCCCCCC(=O)NO` — what was its pIC50?
Found: ≥ 7.00

---

Reported pIC50 by item:
- SYSTEM_NAME: UniProt:P35968
- EXPERIMENTAL_PROTOCOL: Inhibition of N-terminal GST-His6-thrombin cleavage site-fused human VEGFR2 (Asp805 to Val1356 residues) expressed in baculovirus expression system using biotinylated gastrin precursor at Tyr87 as substrate preincubated for 5 mins followed by substrate addition measured after 30 mins by DELFIA method
pIC50: −log10 of the molar value.

Lookup: Sample `O=C(CCCCCCNCc1cc(Oc2ccc(NC(=O)Nc3ccc(Cl)c(C(F)(F)F)c3)cc2)ccn1)NO` — what was its pIC50?
Found: 6.00 to 7.00

---

- SYSTEM_NAME: CDK6/cyclin D3 (Homo sapiens)
- EXPERIMENTAL_PROTOCOL: Inhibition of N-terminal His6-tagged full length human CDK6/N-terminal GST-tagged recombinant full length human cyclin D3 expressed in baculovirus infected SF21 insect cells using histone H1 as substrate after 2 hrs in presence of [gamma-33P]-ATP
ASSAY_ENDPOINT: IC50

Solved entries (count: 2):
SUBSTANCE_SMILES	MEASURED_VALUE
CC(C)(C)c1cnc(CSc2cnc(NC(=O)CCCCCC(=O)NO)s2)o1	100 to 1000 nM
CC(C)(C)c1cnc(CSc2cnc(NC(=O)CCCC(=O)NO)s2)o1	100 to 1000 nM

Lookup: What is its IC50 for CDK6/cyclin D3 (Homo sapiens)? Entry: `CC(C)(C)c1cnc(CSc2cnc(NC(=O)CCCCC(=O)NO)s2)o1`
Found: 100 to 1000 nM

---

- SYSTEM_NAME: Proto-oncogene tyrosine-protein kinase Src (Homo sapiens, UniProt P12931)
- EXPERIMENTAL_PROTOCOL: Inhibition of human N-terminal GST-tagged full length human Src (Met1 to Leu536 residues) expressed in baculovirus expression system assessed as decrease in biotin signal transduction protein phosphorylation at Tyr160 preincubated for 5 mins followed by substrate addition measured after 30 mins by DELFIA method
pIC50: −log10 of the molar value.
Reported pIC50 by item:

Solved entries (count: 3):
SUBSTANCE_SMILES	SYSTEM_NAME	pIC50
Cc1nc(Nc2ncc(C(=O)Nc3c(C)cccc3Cl)s2)cc(N2CCN(CC(=O)NO)CC2)n1	Proto-oncogene tyrosine-protein kinase Src (Homo sapiens, UniProt P12931)	≥ 7.00
Cc1nc(Nc2ncc(C(=O)Nc3c(C)cccc3Cl)s2)cc(N2CCN(CCCCCC(=O)NO)CC2)n1	Proto-oncogene tyrosine-protein kinase Src (Homo sapiens, UniProt P12931)	≥ 7.00
Cc1nc(NCCCCCC(=O)NO)cc(Nc2ncc(C(=O)Nc3c(C)cccc3Cl)s2)n1	Proto-oncogene tyrosine-protein kinase Src (Homo sapiens, UniProt P12931)	≥ 7.00

Lookup: What is its pIC50 for Proto-oncogene tyrosine-protein kinase Src (Homo sapiens, UniProt P12931)? Entry: `Cc1nc(N)cc(N(CC(=O)NO)c2ncc(C(=O)Nc3c(C)cccc3Cl)s2)n1`
Found: 6.00 to 7.00

Lookup: What is its pIC50 for Proto-oncogene tyrosine-protein kinase Src (Homo sapiens, UniProt P12931)? Entry: `Cc1nc(NCCNCC(=O)NO)cc(Nc2ncc(C(=O)Nc3c(C)cccc3Cl)s2)n1`
Found: ≥ 7.00
